# Test system: soluble epoxide hydrolase (sEH)
# ASSAY_OVERVIEW: Fluorescent assay for mouse and human soluble epoxide hydrolase (CMNPC substrate)
# Type: biochemical
# MEASUREMENT_PARAMETERS: inhibitor conc. 50 nM
MEASURE: % Inh (%)
Form entry: value (%) — number only.

[[record]]
structure_smiles = "O=C(Nc1cccc(OCCCN2CCOCC2)c1)Nc1ccc(F)c(F)c1"
measure = "% Inh"
value_units = "%"
reported_result = 75

[[record]]
structure_smiles = "O=C(Nc1ccc(F)cc1)Nc1cccc(OCCCN2CCOCC2)c1"
measure = "% Inh"
value_units = "%"
reported_result = 82

[[record]]
structure_smiles = "O=C(Nc1ccc(C(F)(F)F)cc1)Nc1cccc(OCCCN2CCOCC2)c1"
measure = "% Inh"
value_units = "%"
reported_result = 82


The measured % Inh that `O=C(Nc1cccc(OCc2ccccc2)c1)NC12CC3CC(CC(C3)C1)C2` showed for soluble epoxide hydrolase (sEH) is 98

The measured % Inh that `O=C(CC12CC3CC(CC(C3)C1)C2)Nc1ccc(OCCCN2CCOCC2)cc1` showed for soluble epoxide hydrolase (sEH) is 93

The measured % Inh that `O=C(Nc1ccc(Cl)cc1)Nc1cccc(OCCCN2CCOCC2)c1` showed for soluble epoxide hydrolase (sEH) is 94

The measured % Inh that `O=C(Nc1ccc(F)c(OCCCN2CCOCC2)c1)NC12CC3CC(CC(C3)C1)C2` showed for soluble epoxide hydrolase (sEH) is 92

The measured % Inh that `O=C(Nc1ccc(C(F)(F)F)cc1)Nc1ccc(F)c(OCCCN2CCOCC2)c1` showed for soluble epoxide hydrolase (sEH) is 87

The measured % Inh that `O=C(Nc1ccc(OC(F)(F)F)cc1)Nc1ccc(F)c(OCCCN2CCOCC2)c1` showed for soluble epoxide hydrolase (sEH) is 83

The measured % Inh that `O=C(Nc1ccc(OCCCN2CCOCC2)cc1)Nc1ccc(C(F)(F)F)cc1` showed for soluble epoxide hydrolase (sEH) is 96

The measured % Inh that `O=C(Nc1ccc(F)c(OCCCN2CCOCC2)c1)NC1CCCCC1` showed for soluble epoxide hydrolase (sEH) is 83

The measured % Inh that `O=C(Nc1ccc(F)cc1)Nc1cccc(OCc2ccccc2)c1` showed for soluble epoxide hydrolase (sEH) is 93

* * *

# Tested on: soluble epoxide hydrolase (sEH)
# ASSAY_OVERVIEW: Fluorescent assay for mouse and human soluble epoxide hydrolase (CMNPC substrate)
# Format: biochemical
# MEASUREMENT_PARAMETERS: inhibitor conc. 50 nM
MEASURE: % Inh (%)
Form entry: value (%) — number only.

// % Inh value for O=C(Nc1ccc(OC(F)(F)F)cc1)Nc1cccc(OCCCN2CCOCC2)c1 [Compound 28] : 90

// % Inh value for O=C(Nc1ccc(OCCCN2CCOCC2)cc1)Nc1ccc(OC(F)(F)F)cc1 [Compound 34] : 91

// % Inh value for O=C(Nc1cccc(OCCCN2CCOCC2)c1)NC12CC3CC(CC(C3)C1)C2 [Compound 47] : 99

// % Inh value for O=C(Nc1cccc(OCCCN2CCOCC2)c1)Nc1cccc(C(F)(F)F)c1 [Compound 10] : 74

// % Inh value for O=C(Nc1ccc(C(F)(F)F)cc1)Nc1cccc(Oc2ccccc2)c1 [Compound 40] : 96
